Tested on: K4 kissing-loop RNA reporter;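 note: bound reporter read as fluorescence of individual clusters on recovered sequencing chips by microscopy, with normalized cluster intensities fitted with a binding model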
Method Notes: apparent KD of K4 kissing-loop reporter; higher = weaker reporter binding
Assay Setup: Eterna round: R107; input ligand: none
Kindly supply the reported apparent KD of K4 kissing-loop reporter values for the records listed here.
Value expressed in nM; do not type the unit.

Enquiry: For CCGGCCCAGCCGGAUACCAGUGCGCCGCAGGGAACGGCGGGCCCAGAGUGAUGUUCGGGACACCCUUGGCAGCCGCCUGGGUCGU [#2 Same State - Theophylline B Attempt #28 (HarryS)] , what is its reported apparent KD of K4 kissing-loop reporter?
Return: 365

Enquiry: What measured apparent KD of K4 kissing-loop reporter goes with AAUAAAAUCACGGCCGCCACUGAUAUCCAUAUUAGGAGUGAUGUUCCUAUGACUAUAUAAUUUAACAGGACCGGGUGAAUAUUUA [JR_SSTryptoB_Sub024] ?
Return: 107

Enquiry: Would you kindly share the measured apparent KD of K4 kissing-loop reporter for AAGCAGUCACUCGAAAUCAUCAAAGAUGAACGAGGACCGGUACGGCCGCCACUCGGAGUGAUGUUCCGAAGACUGCAAAAUAAAA [MatMod 2 - Jieux - Exclusion - Tryptophan A] ?
Return: 243

Enquiry: Look at this sequence and give its reported apparent KD of K4 kissing-loop reporter. GGAGCCGAUAGUGAUACCAGCCAGUGAUGUUGGCGAAGUCUCAUUUUCGCUCUCGGUAAGGGCCCUUGGCAGCACUUACUCGGAA [Arledied]
Return: 102

Enquiry: Entry GAUUAAUAAGAGGAUACCAGUACAAAUAAAGUACAUUAAUAGUAGAGUGAUGUUCUAAAGUACCCUUGGCAGCUUAGAGUAAGUU [ExTheophylB.A] has what apparent KD of K4 kissing-loop reporter?
Return: 174

Enquiry: Which apparent KD of K4 kissing-loop reporter reading was recorded for the sequence `UCCUGCAAUCCACCACGAAAGUGGAUGGAUACCAGAGUCGAAAGACUCCCUUGGCAGCCAGUGAUGUUGGAGCAGGUAAAAUAAA` ?
Return: 630

Enquiry: Could you tell me which apparent KD of K4 kissing-loop reporter is on file for UCAUGAAAGACGGCCGCCACUGAUGCUGGAGUGAUGUUUCGGACAUAGUAGAGUGAUGUUCUGCGCAGGACCGGGUCGUCAUGAA [KL-SSTryp-B10 #double Kiss] ?
Return: 134

Enquiry: Requested field: apparent KD of K4 kissing-loop reporter. Item: ACAUAGGAUGGAAGGAGCGCUCGUCAGUCCUGCGAGUGAUGUUCGUGGGUAAAUAUUCGCGAGCAGGUAGGUCGCCAUCUUGAAA [Vedi]
Return: 158

Enquiry: Need apparent KD of K4 kissing-loop reporter of GGAGGUUGGUGCGAUACCAGACCAGCAGUGAUGUUGCGCCAAAGUGAGUGAUGUUCACCGGUCCCUUGGCAGCGCAUUCCUUUAG [Same State Theophylline B GF 14] , thanks.
Return: 1440

Enquiry: # get_value(readout='apparent KD of K4 kissing-loop reporter', item= AAUACCUGAGUGAUGUUCAGGGAAUCAGAAGGAGCGUCAAUUAUGACAGGUAGGUCGCUGAAUACAUGUGUGUAUACACAUGUAC [Arg A SS t4] )
Return: 278

Enquiry: Quick one: apparent KD of K4 kissing-loop reporter of CAUACGCAUGGAGGAUAUGAGAUUUCUCAUAUUAUUUAAUAUUCUCAGUGAUGUUGAGAUAUAAACUCAGAAGGCCAUGUGUAUG [Ex FMN B 2] ?
Return: 196

Enquiry: Given the entry UAAGACAUGAAAGGAUAUCCGAUAUGGAGCCUUUAGUGAUGUUAGGAGCUAGCCGUAGACAAGAUCGGAGAAGGUUCAACCCACA [theeternabot_sameState_KL_FMN_B_13] , report its measured apparent KD of K4 kissing-loop reporter.
Return: 646

Enquiry: Look up apparent KD of K4 kissing-loop reporter for this sequence: UAUUCUGUUCGAAAGAACGGAAUUUCGGAAGGAGCGAGAGAAAUCUCAGGUAGGUCGCCGAAAUUAUUAGAUAGUGAUGUUAUCU [Arginine A K4 4]
Return: 135

Enquiry: Item under review: UUGUAUACUUUUGUGUGCGAUGUGUAGCCGCGAGGACCGGUACGGCCGCCACUCGCUGAGAGUGAUGUUCUCUGGGCUAUAUAUC [Skye_SS_TA3] . Reported apparent KD of K4 kissing-loop reporter?
Return: 1700

Enquiry: What apparent KD of K4 kissing-loop reporter value was documented for this sequence, UGAUACCAGACGGCCGCCACUACACCAGUCAAAGACUGGAUGUGAUGUUCGACCAGUGAUGUUGGUAGGACCGGGUCUGGUAUCU [TrypBX 7 #Palindromic #SwitchBubble #StaticStem] ?
Return: 127

Enquiry: I'd like to know its apparent KD of K4 kissing-loop reporter. The sequence in question is UGACUGGAUGGAAGGAGCGCUAAACUCCUAGUGAUGUUAGGGAUACGAGGCAAAGCCUCGAAGCAGGUAGGUCGCCAUCUAGUCU [FiskerMod 21 - Jieux - Same State - Arginine B]
Return: 146

Enquiry: Find the recorded apparent KD of K4 kissing-loop reporter belonging to AAAAUAAACCAGUGAUGUUGGUGUCCAGAUACCAGCGAUAAAAGUCGCCCUUGGCAGCUGUGGACGUACAAAAUAAGUACGUCCU [MatMod 2 - Jieux - Same State - Theophylline A] and report it.
Return: 872
